// provenance: ChEMBL document CHEMBL3414446

Test System: Hemagglutinin (Influenza A virus) (UniProt B4URE7)
Assay Protocol: Inhibition of influenza A virus A/WSN/33 (H1N1) Hemagglutinin 1 binding to sialic acid receptor assessed as response unit at 5 ug/ml by surface plasmon resonance assay
Particulars: Influenza A virus (A/WSN/1933(H1N1))
Readout Kind: Activity
// keep it numeric: no unit symbol after the value

Look over these answered cases.
C=CC(C)(C)c1[nH]c2ccccc2c1/C=c1\[nH]c(=O)c(=C)[nH]c1=O = 8.9
COc1cc(/C=C/C(=O)CC(=O)/C=C/c2ccc(O)c(OC)c2)ccc1O = 16.1
CCOC(=O)c1c(CSc2ccccc2)n(C)c2cc(Br)c(O)c(CN(C)C)c12 = 20.7

Now take the following compound into account.
Value of Activity reported for the compound "C=CC(C)(C)c1[nH]c2ccccc2c1/C=C1\NC(=O)[C@H](C)NC1=O" is 26.5

----------
Assay Protocol: Antiviral activity against influenza A virus A/WSN/33 (H1N1) infected in MDCK cells assessed as inhibition of plaque formation after 3 days at 37 degC
Assay type: functional, cell-based, Influenza A virus (A/WSN/1933(H1N1))
Particulars: 72 h
Readout Kind: pIC50
Kindly note that pIC50 refers to -log10 of the concentration in mol/L and answer with the value alone.

Entry CCOC(=O)C1=C[C@@H](OC(CC)CC)[C@H](NC(C)=O)[C@@H](N)C1 [OSELTAMIVIR] , pIC50 reported as 4.82

----------
The following molecules are shown together with reported Activity values.
Test System: Hemagglutinin (Influenza A virus)
Assay Protocol: Inhibition of influenza A virus A/WSN/33 (H1N1) Hemagglutinin 1 binding to sialic acid receptor assessed as response unit at 2.5 ug/ml by surface plasmon resonance assay
Particulars: Influenza A virus (A/WSN/1933(H1N1))
Kindly provide the number alone.

Below are worked cases with known answers.
COc1cc(/C=C/C(=O)CC(=O)/C=C/c2ccc(O)c(OC)c2)ccc1O = 6.8
CCOC(=O)c1c(CSc2ccccc2)n(C)c2cc(Br)c(O)c(CN(C)C)c12 = 7.5
C=CC(C)(C)c1[nH]c2ccccc2c1/C=C1\NC(=O)[C@H](C)NC1=O = 12.3

Now turn to the next molecule.
Record "C=CC(C)(C)c1[nH]c2ccccc2c1/C=c1\[nH]c(=O)c(=C)[nH]c1=O" , field Activity: 0.8

----------
Test System: Hemagglutinin (Influenza A virus) (UniProt B4URE7)
Assay Protocol: Inhibition of influenza A virus A/WSN/33 (H1N1) Hemagglutinin 1 binding to sialic acid receptor assessed as response unit at 1.25 ug/ml by surface plasmon resonance assay
Particulars: Influenza A virus (A/WSN/1933(H1N1))
Readout Kind: Activity
// no unit string in output, number only

C=CC(C)(C)c1[nH]c2ccccc2c1/C=C1\NC(=O)[C@H](C)NC1=O [NEOECHINULIN A] = 4.5

In plain terms, CCOC(=O)c1c(CSc2ccccc2)n(C)c2cc(Br)c(O)c(CN(C)C)c12 [UMIFENOVIR] has a documented Activity of 1.2

Sure, the documented Activity for COc1cc(/C=C/C(=O)CC(=O)/C=C/c2ccc(O)c(OC)c2)ccc1O [CURCUMIN] is 2.7

Form field Activity, entry C=CC(C)(C)c1[nH]c2ccccc2c1/C=c1\[nH]c(=O)c(=C)[nH]c1=O [NEOECHINULIN B] : -4

----------
Test System: Hemagglutinin (Influenza A virus)
pKd by entry:
Hey, just a heads up that pKd is the negative log base 10 of the concentration in molar.

C=CC(C)(C)c1[nH]c2ccccc2c1/C=c1\[nH]c(=O)c(=C)[nH]c1=O = 4.49

The measured pKd that "C=CC(C)(C)c1[nH]c2ccccc2c1/C=C1\NC(=O)[C@H](C)NC1=O" showed for Hemagglutinin (Influenza A virus) is 4.01

----------
Test System: Hemagglutinin (Influenza A virus) (UniProt B4URE7)
Assay Protocol: Inhibition of influenza A virus A/WSN/33 (H1N1) Hemagglutinin 1 binding to sialic acid receptor assessed as response unit at 0.625 ug/ml by surface plasmon resonance assay
Particulars: Influenza A virus (A/WSN/1933(H1N1))
Readout Kind: Activity
Field format: numeric only.

In the examples that follow, each entry is paired with its recorded Activity.
CCOC(=O)c1c(CSc2ccccc2)n(C)c2cc(Br)c(O)c(CN(C)C)c12 [UMIFENOVIR] = -1.8
C=CC(C)(C)c1[nH]c2ccccc2c1/C=c1\[nH]c(=O)c(=C)[nH]c1=O [NEOECHINULIN B] = -3.9
COc1cc(/C=C/C(=O)CC(=O)/C=C/c2ccc(O)c(OC)c2)ccc1O [CURCUMIN] = 0.8

// C=CC(C)(C)c1[nH]c2ccccc2c1/C=C1\NC(=O)[C@H](C)NC1=O [NEOECHINULIN A] : Activity value = 1
